- Species on record: Rattus norvegicus
- experiment: Open TG-GATES - Regimen: Daily Repeat
- Type: toxicity, organism-based, Sprague-Dawley
- Set-up: regimen Daily Repeat, gender Male, age 6 weeks
- protocol_conditions: in vivo, po, 0 mg/kg, 72 h, tissue Blood, route gavage, dose level Control, time 3 day
assay_metric: RBC
Answer format reminder: number followed by unit.

CN(C)CCCN1c2ccccc2CCc2ccccc21 [IMIPRAMINE]
642.2 x10_4/ul
CN(C)CCN(Cc1cccs1)c1ccccn1
609 x10_4/ul
CCOC(=O)CCC(=O)O[C@H]1[C@H](O[C@@H]2[C@@H](C)[C@H](O[C@H]3C[C@@](C)(OC)[C@@H](O)[C@H](C)O3)[C@@H](C)C(=O)O[C@H](CC)[C@@](C)(O)[C@H](O)[C@@H](C)C(=O)[C@H](C)C[C@@]2(C)O)O[C@H](C)C[C@@H]1N(C)C [ERYTHROMYCIN ETHYLSUCCINATE]
628.8 x10_4/ul
CN1C(=O)CN=C(c2ccccc2)c2cc(Cl)ccc21 [DIAZEPAM]
630.6 x10_4/ul
CC1=C(/C=C/C(C)=C/C=C/C(C)=C/CO)C(C)(C)CCC1 [RETINOL]
637 x10_4/ul

Qu. Please report RBC for the following compound: NC(N)=Nc1nc(CSCCC(N)=NS(N)(=O)=O)cs1 [FAMOTIDINE]
Ans. 604.6 x10_4/ul

Qu. Note down RBC recorded for COC1=CC(=O)C[C@@H](C)[C@]12Oc1c(Cl)c(OC)cc(OC)c1C2=O [GRISEOFULVIN]
Ans. 598.2 x10_4/ul

Qu. Recall and state the measured RBC for COc1ccc2[nH]c([S+]([O-])Cc3ncc(C)c(OC)c3C)nc2c1 (stereo not drawn) [OMEPRAZOLE] .
Ans. 616.6 x10_4/ul
